Target: T1, DYNLL2 1-89 Dynein_light (domain begin residue: 1, domain end residue: 89), Q96FJ2
T1 chain: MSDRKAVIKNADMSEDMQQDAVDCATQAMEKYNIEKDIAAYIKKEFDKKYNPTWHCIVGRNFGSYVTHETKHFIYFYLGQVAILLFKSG
Experiment: phage ELISA signal ratio (GST-PRM binding over GST background); higher = stronger binding of peptide-phage to the PRM
Consider the following binders; for each one, report its phage ELISA signal ratio.
Give bare numbers.

| BINDER | ASSAY_ENDPOINT | ASSAY_VALUE |
| --- | --- | --- |
| MEMGTQTYKWQEWAFV | phage ELISA signal ratio | 31.3 |
| TQTMSWTGEKPQQWEM | phage ELISA signal ratio | 27 |
| TEMYEWMADATTNTMW | phage ELISA signal ratio | 28 |
| TQVWPDDWWALGNYYE | phage ELISA signal ratio | 32 |
| ETQTPEWMGWLMESAI | phage ELISA signal ratio | 34.3 |
| TQTEPYKHQDQAHTRG | phage ELISA signal ratio | 26.1 |

Summary for this binder, SSTTGDDVLNSLTEMP : phage ELISA signal ratio is 34.4
